Taken from patent US20210196796A1.

Molecular target: T1, orthogonal hCD122 receptor (hoRb), hCD122 with H133D and Y134F (human, UniProt P14784 27-550)
T1 sequence: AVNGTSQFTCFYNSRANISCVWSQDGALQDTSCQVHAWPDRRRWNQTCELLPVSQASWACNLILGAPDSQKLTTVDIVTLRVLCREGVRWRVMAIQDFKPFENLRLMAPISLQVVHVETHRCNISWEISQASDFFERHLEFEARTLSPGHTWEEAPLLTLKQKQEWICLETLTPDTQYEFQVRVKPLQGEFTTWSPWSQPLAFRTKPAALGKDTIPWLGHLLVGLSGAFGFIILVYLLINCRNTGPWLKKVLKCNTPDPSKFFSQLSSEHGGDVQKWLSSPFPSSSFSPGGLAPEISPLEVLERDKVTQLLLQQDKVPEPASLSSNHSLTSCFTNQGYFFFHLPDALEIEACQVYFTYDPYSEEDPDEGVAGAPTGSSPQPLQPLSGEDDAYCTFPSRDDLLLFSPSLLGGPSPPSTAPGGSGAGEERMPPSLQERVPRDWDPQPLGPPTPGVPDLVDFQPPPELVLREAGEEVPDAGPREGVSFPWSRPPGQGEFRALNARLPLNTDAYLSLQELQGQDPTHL
Assay: cell-based or functional assay
# 3F8 Ortho Proliferation Signal 1:50 listing for each entry below
Number only, in cts/min; omit the unit.

Use these answered entries as a reference point.
SQVLKQ (ligand) APTSSSTKKTQLQLSQLLVLLKQILNGINNYKNPKLTRMLTFKFYMPKKATELKHLQCLEEELKPLEEVLNLAQSKNFHLRPRDLISNINVIVLELKGSETTFMCEYADETATIVEFLNRWITFCQSIISTLT = 33100
T3K, SQVLKA (ligand) APKSSSTKKTQLQLSQLLVLLKAILNGINNYKNPKLTRMLTFKFYMPKKATELKHLQCLEEELKPLEEVLNLAQSKNFHLRPRDLISNINVIVLELKGSETTFMCEYADETATIVEFLNRWITFCQSIISTLT = 7150
N88Q, SQVLKA (ligand) APTSSSTKKTQLQLSQLLVLLKAILNGINNYKNPKLTRMLTFKFYMPKKATELKHLQCLEEELKPLEEVLNLAQSKNFHLRPRDLISQINVIVLELKGSETTFMCEYADETATIVEFLNRWITFCQSIISTLT = 1070
T3R, SQVLKA (ligand) APRSSSTKKTQLQLSQLLVLLKAILNGINNYKNPKLTRMLTFKFYMPKKATELKHLQCLEEELKPLEEVLNLAQSKNFHLRPRDLISNINVIVLELKGSETTFMCEYADETATIVEFLNRWITFCQSIISTLT = 5980
SQVLGA (ligand) APTSSSTKKTQLQLSQLLVLLGAILNGINNYKNPKLTRMLTFKFYMPKKATELKHLQCLEEELKPLEEVLNLAQSKNFHLRPRDLISNINVIVLELKGSETTFMCEYADETATIVEFLNRWITFCQSIISTLT = 2300
T3P, SQVLKA (ligand) APPSSSTKKTQLQLSQLLVLLKAILNGINNYKNPKLTRMLTFKFYMPKKATELKHLQCLEEELKPLEEVLNLAQSKNFHLRPRDLISNINVIVLELKGSETTFMCEYADETATIVEFLNRWITFCQSIISTLT = 19000

In the following, a different binder is considered.
Exam item: Indicate the recorded 3F8 Ortho Proliferation Signal 1:50 value for this binder: R38W, SQVLKA (ligand) APTSSSTKKTQLQLSQLLVLLKAILNGINNYKNPKLTWMLTFKFYMPKKATELKHLQCLEEELKPLEEVLNLAQSKNFHLRPRDLISNINVIVLELKGSETTFMCEYADETATIVEFLNRWITFCQSIISTLT
Marked response: 24200
